# credit: patent US20260234242A1

# ASSAY_SYSTEM: T1, human CDH6 on tumor cells (OVCAR3 cells, PA-1 cells) (human, UniProt P55285 54-790)
# T1 sequence: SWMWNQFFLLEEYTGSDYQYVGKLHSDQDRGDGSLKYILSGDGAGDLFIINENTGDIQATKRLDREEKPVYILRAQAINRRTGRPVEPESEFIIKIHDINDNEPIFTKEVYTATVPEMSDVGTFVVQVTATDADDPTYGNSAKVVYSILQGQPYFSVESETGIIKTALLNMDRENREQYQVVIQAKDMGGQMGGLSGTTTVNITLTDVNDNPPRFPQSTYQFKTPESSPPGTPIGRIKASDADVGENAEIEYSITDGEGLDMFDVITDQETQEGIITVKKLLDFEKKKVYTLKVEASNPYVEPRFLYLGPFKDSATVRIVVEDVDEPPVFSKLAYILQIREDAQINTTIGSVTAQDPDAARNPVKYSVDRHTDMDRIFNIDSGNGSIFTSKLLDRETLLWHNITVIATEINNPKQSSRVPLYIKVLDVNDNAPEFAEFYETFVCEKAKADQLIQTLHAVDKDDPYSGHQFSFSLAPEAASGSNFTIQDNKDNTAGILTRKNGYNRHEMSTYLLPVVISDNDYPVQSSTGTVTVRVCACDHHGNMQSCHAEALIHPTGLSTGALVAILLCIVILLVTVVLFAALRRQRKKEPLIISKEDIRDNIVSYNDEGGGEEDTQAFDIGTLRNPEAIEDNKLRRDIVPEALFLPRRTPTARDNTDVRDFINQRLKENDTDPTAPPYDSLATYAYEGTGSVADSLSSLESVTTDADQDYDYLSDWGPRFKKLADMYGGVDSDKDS
# PROTOCOL_DESCRIPTION: FACS, OVCAR3 cells
# Method: OVCAR3 cells with high expression of CDH6 and PA-1 cells with moderate expression of CDH6 were used to detect the binding activity of the antibodies to the cells. […] The cells were washed once with PBS, counted, resuspended to 2×10⁶ cells/mL in an FACS buffer (PBS+2% FBS), and then added to a 96-well plate at 50 μL/well. […] The mean fluorescence intensity (MFI) was measured using FACS Canton II (BD). […]
Consider the following binders and their measured Max MFI readings.

BINDER: hCDH6-1-H4L3 (antibody, V domains shown, Humanized) VH: EVQLVQSGAEVKKPGSSVKVSCKASGYTFTNYWMHWVRQRPGQGLEWMGDIDPSHSETHYTQKFKDRVTITVDKSTSTAYMELSSLRSEDTAVYYCARGDLGRFDYWGQGTTVTVSS VL: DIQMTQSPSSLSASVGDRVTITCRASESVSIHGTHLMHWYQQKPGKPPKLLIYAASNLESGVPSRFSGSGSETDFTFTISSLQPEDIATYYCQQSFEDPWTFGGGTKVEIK
UNIT_ABBREV: MFI
Max MFI: 15100
//
BINDER: hCDH6-1-H3L1 (antibody, V domains shown, Humanized) VH: EVQLVQSGAEVKKPGSSVKVSCKASGYTFTNYWMHWVRQAPGQGLEWMGDIDPSHSETHYTQKFKDRVTLTVDKSTSTAYMELSSLRSEDTAVYYCARGDLGRFDYWGQGTTVTVSS VL: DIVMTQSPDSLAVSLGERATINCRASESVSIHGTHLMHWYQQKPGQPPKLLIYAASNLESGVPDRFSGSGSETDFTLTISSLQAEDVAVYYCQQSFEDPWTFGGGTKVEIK
UNIT_ABBREV: MFI
Max MFI: 14600
//
BINDER: hCDH6-1-H1L2 (antibody, V domains shown, Humanized) VH: EVQLVQSGAEVKKPGSSVKVSCKASGYTFSNYWMHWVRQAPGQGLEWMGDIDPSHSETHYTQKFKDRVTITVDKSTSTAYMELSSLRSEDTAVYYCARGDLGRFDYWGQGTTVTVSS VL: DIVMTQSPDSLAVSLGERATINCRASESVSIHGTHLMHWYQQKSGQPPKLLIYAASNLESGVPDRFSGSGSETDFTLTISSLQAEDVAVYYCQQSFEDPWTFGGGTKVEIK
UNIT_ABBREV: MFI
Max MFI: 14500
//
BINDER: hCDH6-1-H1L1 (antibody, V domains shown, Humanized) VH: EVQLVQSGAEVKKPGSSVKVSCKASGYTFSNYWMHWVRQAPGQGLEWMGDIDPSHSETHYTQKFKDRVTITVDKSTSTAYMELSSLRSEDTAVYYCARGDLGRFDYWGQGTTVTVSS VL: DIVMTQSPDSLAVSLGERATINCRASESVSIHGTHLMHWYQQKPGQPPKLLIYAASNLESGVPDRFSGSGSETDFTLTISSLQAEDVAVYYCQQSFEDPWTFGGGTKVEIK
UNIT_ABBREV: MFI
Max MFI: 14400
//
BINDER: hCDH6-1-H3L2 (antibody, V domains shown, Humanized) VH: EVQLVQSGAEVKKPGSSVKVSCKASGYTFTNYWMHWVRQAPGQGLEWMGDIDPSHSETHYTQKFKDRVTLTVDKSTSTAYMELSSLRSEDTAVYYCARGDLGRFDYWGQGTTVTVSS VL: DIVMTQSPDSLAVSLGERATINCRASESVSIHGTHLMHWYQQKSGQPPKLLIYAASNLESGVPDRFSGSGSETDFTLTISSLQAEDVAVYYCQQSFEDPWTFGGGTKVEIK
UNIT_ABBREV: MFI
Max MFI: 14300
//
BINDER: hCDH6-1-H2L1 (antibody, V domains shown, Humanized) VH: EVQLVQSGAEVKKPGSSVKVSCKASGYTFTNYWMHWVRQAPGQGLEWMGDIDPSHSETHYTQKFKDRVTITVDKSTSTAYMELSSLRSEDTAVYYCARGDLGRFDYWGQGTTVTVSS VL: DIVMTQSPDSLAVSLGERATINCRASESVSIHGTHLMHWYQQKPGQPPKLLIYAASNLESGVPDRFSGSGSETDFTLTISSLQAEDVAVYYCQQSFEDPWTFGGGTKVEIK
UNIT_ABBREV: MFI
Max MFI: 14500
//
BINDER: hCDH6-1-H3L3 (antibody, V domains shown, Humanized) VH: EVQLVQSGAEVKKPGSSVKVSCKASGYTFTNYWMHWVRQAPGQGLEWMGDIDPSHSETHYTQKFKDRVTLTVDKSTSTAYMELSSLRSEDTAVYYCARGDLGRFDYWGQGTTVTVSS VL: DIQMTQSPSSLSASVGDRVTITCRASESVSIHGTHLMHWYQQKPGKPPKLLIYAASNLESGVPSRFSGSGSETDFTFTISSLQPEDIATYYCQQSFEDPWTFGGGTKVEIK
UNIT_ABBREV: MFI
Max MFI: 14600
//
BINDER: hCDH6-1-H2L2 (antibody, V domains shown, Humanized) VH: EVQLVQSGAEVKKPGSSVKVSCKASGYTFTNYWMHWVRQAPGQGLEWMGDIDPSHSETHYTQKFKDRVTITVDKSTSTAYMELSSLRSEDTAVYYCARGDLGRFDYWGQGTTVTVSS VL: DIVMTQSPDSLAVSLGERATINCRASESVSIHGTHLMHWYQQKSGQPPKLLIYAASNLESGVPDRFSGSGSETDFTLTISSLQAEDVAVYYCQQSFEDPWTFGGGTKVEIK
UNIT_ABBREV: MFI
Max MFI: 14300
//
BINDER: hCDH6-1-H4L2 (antibody, V domains shown, Humanized) VH: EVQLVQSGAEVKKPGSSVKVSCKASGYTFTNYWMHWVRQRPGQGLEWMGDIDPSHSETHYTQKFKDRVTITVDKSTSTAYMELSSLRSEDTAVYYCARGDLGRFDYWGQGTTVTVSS VL: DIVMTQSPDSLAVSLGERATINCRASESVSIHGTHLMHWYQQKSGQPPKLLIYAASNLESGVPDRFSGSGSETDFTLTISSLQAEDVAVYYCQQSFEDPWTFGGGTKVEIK
UNIT_ABBREV: MFI
Max MFI: 15200
//
BINDER: hCDH6-1-H2L3 (antibody, V domains shown, Humanized) VH: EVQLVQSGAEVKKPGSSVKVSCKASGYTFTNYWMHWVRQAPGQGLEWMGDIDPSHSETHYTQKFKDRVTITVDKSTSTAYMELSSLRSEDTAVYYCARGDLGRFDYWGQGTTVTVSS VL: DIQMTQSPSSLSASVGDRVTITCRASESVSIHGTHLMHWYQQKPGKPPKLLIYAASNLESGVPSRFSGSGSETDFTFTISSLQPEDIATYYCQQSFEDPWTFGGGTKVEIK
UNIT_ABBREV: MFI
Max MFI: 14800
